Field pKi: reported value for Sodium-dependent serotonin transporter (Homo sapiens, UniProt P31645); entries drawn from several documents.
Lab note: report pKi as minus log10 of the concentration in molar units, number only.

Request: Record request: pKi value, item "c1ccc(-c2ccccc2-c2ccccc2CO[C@H]2CCNC2)cc1"
Result: 5.56

Request: // returns reported pKi for input "c1ccc(-c2ccc3c(c2)OCCCO3)c(CO[C@H]2CCNC2)c1"
Result: 6.15

Request: What pKi value was documented for this compound, COc1ccc(C2CN(C)Cc3cc(OC4CCN(C5CCOCC5)CC4)ccc32)cc1 (stereo not drawn) ?
Result: 8.22

Request: Which pKi is listed for "O=C(c1cccc(Cl)c1Cl)N([C@H]1C[C@H]2CC[C@H]2C1)[C@H]1CCNC1" ?
Result: 8.05

Request: Could you share which pKi value was measured for "CC(C)(C)N1CC(Oc2cc(Br)ccc2OCc2cccc(F)c2)C1" ?
Result: 6.03

Request: What measured pKi goes with Oc1ccccc1[C@H]1CN2CCC[C@H]2c2cc(OCCCN3CCCCC3)ccc21 (relative stereo) ?
Result: 6.95
